BRD4 (Homo sapiens (Human)) IC50, compiled from various sources.
RECORDED_ENDPOINT: IC50 (nM)

Some solved cases for reference:
> print(dat)
                                   molecule                  measured.on  recorded.endpoint  reported
1  Cc1nn(C)c2c1C(=O)N(c1cc(C)c(=O)n(C)c1)C2c1ccc(Cl)cc1 (stereo not shown)  BRD4 (Homo sapiens (Human))               IC50        89
2  CCc1nn(CCOC)c2c1C(c1ccc(Cl)cc1)N(c1cc(C)c3nnc(C)n3c1)C2=O (stereo not shown)  BRD4 (Homo sapiens (Human))               IC50        50
3  Cc1noc(C)c1-c1nc2c(n1C(C)C)C(c1ccc(Cl)cc1)N(c1cc(C)c(=O)n(C)c1)C2=O (stereo not shown)  BRD4 (Homo sapiens (Human))               IC50       120
4  COc1ncc(-n2nc3c(c2C)C(=O)N(c2cc(Cl)c(=O)n(C)c2)C3c2ccc(Cl)cc2)cn1 (stereo not shown)  BRD4 (Homo sapiens (Human))               IC50       210

A = Cc1nn(C(C)C)c2c1[C@@H](c1ccc(Cl)cc1)N(c1cc(C)c(=O)n(C)c1)C2=O
B = Cc1cc(N2C(=O)c3c(C4CC4)nn(-c4ccnn4C)c3C2c2ccc(Cl)cc2)cn(C)c1=O (stereo not shown)
C = CCOC(=O)n1cc(C)c2c1C(c1ccc(Cl)cc1)N(c1cc(C)c3nnc(C)n3c1)C2=O (stereo not shown)
D = CCCn1c(-c2cncc(C#N)c2)nc2c1C(=O)N(c1cc(C)c(=O)n(C)c1)C2c1ccc(Cl)cc1 (stereo not shown)
Would you mind ranking these molecules by ascending IC50? Provide the labels, sequenced as the question asks.
A, C, B, D
(A: 13 nM, C: 38 nM, B: 96 nM, D: 166 nM)

a = Cc1cc(N2C(=O)c3nc(C4=CCN(C(=O)NC(C)(C)C)CC4)n(C(C)C)c3C2c2ccc(Cl)cc2)cn2c(C)nnc12 (stereo not shown)
b = Cc1cc(N2C(=O)c3c(C(=O)NCCN(C)C)cn(C)c3C2c2ccc(Cl)cc2)cc2c1nnn2C (stereo not shown)
I'd appreciate it if you could identify which of a and b has the greater IC50. Write down the label of the entry you select.
b

1 = Cc1cc(N2C(=O)c3cc(-c4ccc(=O)n(C)c4)n(C)c3C2c2ccc(Cl)cc2)cn(C)c1=O (stereo not shown)
2 = CC(C)n1c(-c2ccn(C)n2)nc2c1C(c1ccc(Cl)cc1)N(c1ccc(=O)n(C)c1)C2=O (stereo not shown)
3 = Cc1cc(N2C(=O)c3ncn(C(C)C)c3C2c2ccc(Cl)cc2)cc2c1nnn2C (stereo not shown)
Which order do these items take when sorted by rising IC50? List them. List labels; respect the requested ordering.
1, 3, 2

---

pIC50: −log10 of the molar value.
Literature compilation of pIC50 measurements on BRD4 (Homo sapiens (Human), UniProt O60885).
RECORDED_ENDPOINT: pIC50

The following compounds have reported results that may help.
> print(dat)
                                   compound  recorded.endpoint  reported
1  Cc1cc(N2C(=O)c3c(c(CF)nn3C3CC3)C2c2ccc(Cl)cc2)cn2c(C)nnc12 (centres unmarked)              pIC50      7.34
2  Cc1ncc(-c2nc3c(n2C(C)C)C(c2ccc(Cl)cc2)N(c2cc(C)c(=O)n(C)c2)C3=O)s1 (centres unmarked)              pIC50      6.96
3  CCn1nc2c(c1C)C(c1ccc(Cl)cc1F)N(c1cc(C)c(=O)n(C)c1)C2=O (centres unmarked)              pIC50      6.85
4  Cc1noc(C)c1-c1cc(OCc2c([N+](=O)[O-])ccc3ncccc23)cc(C(O)c2ccccc2)c1 (centres unmarked)              pIC50      6.13
5  Cc1nn(C)c2c1C(c1ccc(Cl)cc1)N(c1cc(Cl)c(=O)n(C)c1)C2=O (centres unmarked)              pIC50      6.39

a = CC(=O)N1CC(n2cc(C)c3c2C(c2ccc(Cl)cc2)N(c2cc(C)c4nnc(C)n4c2)C3=O)C1 (centres unmarked)
b = Cc1cc(N2C(=O)c3ccn(C)c3C2c2ccc(Cl)c(F)c2)cn(C)c1=O (centres unmarked)
c = COc1nccc(-n2nc(C)c3c2C(=O)N(c2cc(C)c(=O)n(C)c2)C3c2ccc(Cl)cc2)n1 (centres unmarked)
Highest pIC50 first, then in falling order down to the smallest. Dear reader, please state the labels in the requested order.
a, b, c
(a: 7.77, b: 6.81, c: 6.41)
